Would you kindly list growth inhibition for each of these compounds?
assay: NCI Yeast Anticancer Drug Screen. Data for the mlh1 rad18 strain (AID 175)
assay conditions: S. cerevisiae mlh1 rad18 strain growth inhibition; at 50.0 µM; stronger effect = higher value
This is part of a sample that, as a whole, favours compounds with a hit. Of some 79,000 tested, about 15% had one in any assay.
Please reply with the bare figure in % and do not write the unit itself.

Task item: Give the measured growth inhibition of COc1ccc2ccccc2c1C1OC(=O)c2ccccc21 (stereo not given) .
Reply: 52.5

Task item: Give the measured growth inhibition of OC1CCC2OC12 (stereo not given) .
Reply: 2

Task item: Give the measured growth inhibition of COc1cc2c(c(OC)c1OC)-c1ccc(S(C)(=O)=O)c(=O)cc1[C@@H](NC(C)=O)CC2 .
Reply: -44.4

Task item: Give the measured growth inhibition of CN1CCCCC1C(O)CO (stereo not given) .
Reply: -27.1

Task item: Give the measured growth inhibition of CN(C)c1ccc(/C=N/NC=O)c(Cl)c1 .
Reply: -15.3

====

assay: NCI Yeast Anticancer Drug Screen. Data for the sgs1 mgt1 strain (AID 161);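 note: 0% = growth of cultures given vehicle only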
assay conditions: S. cerevisiae sgs1 mgt1 strain, at 50.0 µM, stronger effect = higher value
Compounds without any hit were thinned out: in the full panel of roughly 79,000, 15% have a hit.
Would you kindly list growth inhibition for each of these compounds?
Please reply with the bare figure in % and do not write the unit itself.

Task item: Give the measured growth inhibition of COc1ccc2[nH]c3c4c(c(C)cc3c2c1)OC(C)(C)C=C4 .
Reply: -4.05

Task item: Give the measured growth inhibition of COC(=O)C1C2CC3C(OC(=O)C31)C2OC(=O)[C@](OC)(c1ccccc1)C(F)(F)F (some centres undefined) .
Reply: 10.6

Task item: Give the measured growth inhibition of COC(=O)CCCCCN1C(=O)c2cccc([N+](=O)[O-])c2C1=O .
Reply: 15.6

Task item: Give the measured growth inhibition of COC(=O)c1ccccc1O .
Reply: -7.9

Task item: Give the measured growth inhibition of CN(C)CCNC(=O)c1cccc2nc3c(C(=O)NCCN(C)C)cccc3nc12 .
Reply: -46.6

Task item: Give the measured growth inhibition of CCOC(=O)C1SC(=Nc2ccc(Cl)c(Cl)c2)N=C1C (centres undefined) .
Reply: -6.4

Task item: Give the measured growth inhibition of CCCNC(=O)c1cccc2c1-c1ccccc1C2=O .
Reply: -2.65

Task item: Give the measured growth inhibition of COc1ccc2c(c1)C(O)C(NCc1ccccc1)C2 (centres undefined) .
Reply: -0.45

Task item: Give the measured growth inhibition of O=c1[nH]c(=S)[nH]c2c1CN(CCCN1CCOCC1)CN2 .
Reply: -15.8

====

assay: NCI Yeast Anticancer Drug Screen. Data for the cln2 rad14 strain (AID 165);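 note: 0% = growth equal to vehicle treated cultures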
assay conditions: S. cerevisiae cln2 rad14 strain, at 50.0 µM, stronger effect = higher value
Compounds without any hit were thinned out: in the full panel of roughly 79,000, 15% have a hit. Activity calls are given as the source filed them. Rule as the data show it: active = growth inhibition above about 70%; inactive = the rest.
measured metric: growth inhibition

Task item: Give the measured growth inhibition of Nc1c(Br)cc(Br)cc1-c1cc(Br)cc(Br)c1N .
Reply: 5.3% (inactive)

Task item: Give the measured growth inhibition of CCN(/N=C1\CC2C=CCN(C2)C(=O)Cc2c1[nH]c1ccccc21)S(=O)(=O)c1ccc(C)cc1 (stereo unspecified) .
Reply: 23.6% (inactive)

Task item: Give the measured growth inhibition of CC1COC(C(=O)O)(c2ccccc2)O1 (stereo unspecified) .
Reply: -17.6% (inactive)

Task item: Give the measured growth inhibition of O=C(CCc1cc(O)cc(O)c1)NCCc1cc(OCc2ccccc2)cc(OCc2ccccc2)c1 .
Reply: 33.2% (inactive)

Task item: Give the measured growth inhibition of Nc1[nH]c(=O)ncc1[N+](=O)[O-] .
Reply: -25.4% (inactive)

Task item: Give the measured growth inhibition of CCOC(=O)c1sc(SC)nc1NC(=O)c1ccc(Cl)cc1 .
Reply: 0.7% (inactive)

Task item: Give the measured growth inhibition of O=C1c2ccccc2C(=O)c2cc(N=Nc3c(O)ccc4ccccc34)ccc21 .
Reply: 4.25% (inactive)

Task item: Give the measured growth inhibition of O=C(NC1CCCCC1C1CCCCC1)c1ccc(Cl)cc1 (stereo unspecified) .
Reply: -10.9% (inactive)

Task item: Give the measured growth inhibition of O=C(O)c1cc(=O)[nH]c(=S)[nH]1 .
Reply: 8.05% (inactive)

Task item: Give the measured growth inhibition of CC(C)C1=CC(=O)C(C)(C2=NC(C)(C)CO2)c2ccccc21 (stereo unspecified) .
Reply: 22.7% (inactive)

Task item: Give the measured growth inhibition of Cc1cc(C)c(C(=O)c2cccc(Cl)c2)c(C)c1 .
Reply: -56.9% (inactive)

Task item: Give the measured growth inhibition of CCOC(=O)NC .
Reply: 3.85% (inactive)

Task item: Give the measured growth inhibition of CCOC(=O)C1Cc2cc(C)c(C)cc2N(C)C1=O (stereo unspecified) .
Reply: -22.5% (inactive)

Task item: Give the measured growth inhibition of CN(CCO)c1cnn(CCO)c(=O)c1Cl .
Reply: -6.15% (inactive)

Task item: Give the measured growth inhibition of CC(C)[Si]1(C(C)C)N([Si](C)(C)F)[Si](C(C)C)(C(C)C)N1[Si](C)(C)F .
Reply: 21% (inactive)

Task item: Give the measured growth inhibition of O=[N+]([O-])c1ccc(CS(=O)(=O)c2ccccc2)o1 .
Reply: -15.9% (inactive)

Task item: Give the measured growth inhibition of O=C(c1ccccc1)C1(c2ccccc2)C(C(=O)c2ccccc2)(c2ccccc2)S1(=O)=O (stereo unspecified) .
Reply: -38.8% (inactive)

Task item: Give the measured growth inhibition of N#Cc1nc(Nc2ccc([N+](=O)[O-])cc2)sc1N .
Reply: 36.2% (inactive)

Task item: Give the measured growth inhibition of NC(CO)C(O)C(O)C(O)CO (stereo unspecified) .
Reply: 6.7% (inactive)

Task item: Give the measured growth inhibition of N#CC1C=CN(Cc2ccccc2)C=C1C(=O)c1ccccc1 (stereo unspecified) .
Reply: 2.55% (inactive)

Task item: Give the measured growth inhibition of NCCO .
Reply: -3.6% (inactive)
